# MEASUREMENT PARAMETERS: in dichloromethane, 283.15 K
OUTCOME MEASURE: solubility (mole fraction)

The compound listed as O=C(N[C@H](C(=O)O)c1ccccc1)OCc1ccccc1 has a reported solubility (mole fraction) of 0.00624

###

# MEASUREMENT PARAMETERS: in methyl acetate, 323.15 K
OUTCOME MEASURE: solubility (mole fraction)
Lab note: record the figure alone, no unit after it.

The compound listed as O=C(N[C@H](C(=O)O)c1ccccc1)OCc1ccccc1 has a reported solubility (mole fraction) of 0.0918

###

# MEASUREMENT PARAMETERS: in n-propanol, 323.15 K
OUTCOME MEASURE: solubility (mole fraction)
Lab note: record the figure alone, no unit after it.

The compound listed as O=C(N[C@H](C(=O)O)c1ccccc1)OCc1ccccc1 has a reported solubility (mole fraction) of 0.11

###

# MEASUREMENT PARAMETERS: in n-propanol, 303.15 K
OUTCOME MEASURE: solubility (mole fraction)
Lab note: record the figure alone, no unit after it.

The compound listed as O=C(N[C@H](C(=O)O)c1ccccc1)OCc1ccccc1 has a reported solubility (mole fraction) of 0.039

###

# MEASUREMENT PARAMETERS: in 2-butanone, 283.15 K
OUTCOME MEASURE: solubility (mole fraction)
Lab note: record the figure alone, no unit after it.

The molecule listed as O=C(N[C@H](C(=O)O)c1ccccc1)OCc1ccccc1 has a reported solubility (mole fraction) of 0.0446

###

# MEASUREMENT PARAMETERS: in ethyl acetate, 323.15 K
OUTCOME MEASURE: solubility (mole fraction)

The compound listed as O=C(N[C@H](C(=O)O)c1ccccc1)OCc1ccccc1 has a reported solubility (mole fraction) of 0.073

###

# MEASUREMENT PARAMETERS: in ethyl acetate, 303.15 K
OUTCOME MEASURE: solubility (mole fraction)
Lab note: record the figure alone, no unit after it.

The molecule listed as O=C(N[C@H](C(=O)O)c1ccccc1)OCc1ccccc1 has a reported solubility (mole fraction) of 0.0371

###

# MEASUREMENT PARAMETERS: in ethanol, 323.15 K
OUTCOME MEASURE: solubility (mole fraction)
Lab note: record the figure alone, no unit after it.

The compound listed as O=C(N[C@H](C(=O)O)c1ccccc1)OCc1ccccc1 has a reported solubility (mole fraction) of 0.141

###

# MEASUREMENT PARAMETERS: in dichloromethane, 298.15 K
OUTCOME MEASURE: solubility (mole fraction)
Lab note: record the figure alone, no unit after it.

The compound listed as O=C(N[C@H](C(=O)O)c1ccccc1)OCc1ccccc1 has a reported solubility (mole fraction) of 0.0112

###

# MEASUREMENT PARAMETERS: in acetone, 313.15 K
OUTCOME MEASURE: solubility (mole fraction)
Lab note: record the figure alone, no unit after it.

The compound listed as O=C(N[C@H](C(=O)O)c1ccccc1)OCc1ccccc1 has a reported solubility (mole fraction) of 0.129

###

# MEASUREMENT PARAMETERS: in methyl acetate, 293.15 K
OUTCOME MEASURE: solubility (mole fraction)
Lab note: record the figure alone, no unit after it.

The molecule listed as O=C(N[C@H](C(=O)O)c1ccccc1)OCc1ccccc1 has a reported solubility (mole fraction) of 0.0399
